Reference source: paper PMC13288994

Test system: SFV
method-notes: microbe, parasite or virus in culture
Type: cell-based, Semliki Forest virus
test-parameters: Semliki Forest virus, U2OS, read-out: EC50 virus production, SFV
measured-metric: EC50

Q) Requested read-out: EC50. Entry: O=C(CN1C(=O)CNC1=O)NCc1n[nH]c2c1CCCCC2 [GAP-1173149]
A) > 100 µM

----------
method-notes: Cytotoxicity assay (PrestoBlue, 24 h) in NHDF cells
Type: cell-based, Human
test-parameters: human, NHDF cells
measured-metric: CC50 at 24 h

Q) Suppose we examine the compound O=C(CN1C(=O)CNC1=O)NCc1n[nH]c2c1CCCCC2 ; what CC50 at 24 h value has been reported?
A) > 500 µM

----------
System: SARS-CoV-2-nLuc
method-notes: microbe, parasite or virus in culture
Assay type: cell-based
test-parameters: Severe acute respiratory syndrome coronavirus 2; VeroE6-TMPRSS2 cells; read-out: Antiviral potency (EC50 [µM]) SARS-CoV-2
Known EC50 of a selection of molecules

Q) # query: EC50 of entry O=C(CN1C(=O)CNC1=O)NCc1n[nH]c2c1CCCCC2 [GAP-1173149]
A) > 100 µM

Q) So what does the record say about EC50 for Cn1nc(CN(C(=O)c2ccc(F)cc2)c2ccccc2)c2c1CCN(S(=O)(=O)Cc1ccccc1F)C2 [GAP-1081237] ?
A) > 100 µM

Q) So what's the measured EC50 for this one? CCNc1cc(C)nc(N2CCN(C(=O)c3cccc4ccccc34)CC2)n1 [GAP-1066658]
A) ~100 µM

Q) For CC(C)(C)c1ccc(C(=O)On2c(-c3ccccc3F)nc3ccccc3c2=O)cc1 [GAP-1000864] , what is its reported EC50?
A) > 20 µM

----------
Quick reference for CC50 among some molecules
method-notes: in vitro
test-parameters: human

input-smiles: Cn1nc(CN(C(=O)c2ccc(F)cc2)c2ccccc2)c2c1CCN(S(=O)(=O)Cc1ccccc1F)C2
measured-metric: CC50
result: > 100 µM
--
input-smiles: CCNc1cc(C)nc(N2CCN(C(=O)c3cccc4ccccc34)CC2)n1
measured-metric: CC50
result: 61.5 µM
--
input-smiles: CCN1CCc2nc3sc(C(=O)c4ccccc4)c(C)c3cc2C1
measured-metric: CC50
result: 19.2 µM
--
input-smiles: O=C(CN1C(=O)CNC1=O)NCc1n[nH]c2c1CCCCC2
measured-metric: CC50
result: > 100 µM
--
input-smiles: Cc1ccc2sc(N(CCCN(C)C)C(=O)c3nc4ccccc4s3)nc2c1C
measured-metric: CC50
result: 31.4 µM
--
input-smiles: CCS(=O)(=O)c1ncc(Cl)c(C(=O)Nc2nnc(C(C)C)s2)n1
measured-metric: CC50
result: 16.7 µM
--
input-smiles: Cc1ccc(NC(=O)c2oc3ccccc3c2NC(=O)c2nc(S(C)(=O)=O)ncc2Cl)cc1
measured-metric: CC50
result: 20 µM
--
input-smiles: O=C(CSc1c2c(nc3cc(Cl)ccc13)CCCC2)Nc1ccc2c(c1)OCCO2
measured-metric: CC50
result: > 20 µM

Q) Bench note: what CC50 did CC(C)(C)c1ccc(C(=O)On2c(-c3ccccc3F)nc3ccccc3c2=O)cc1 show?
A) > 20 µM

----------
method-notes: Cytotoxicity assay (PrestoBlue, 24 h) in U-2 OS cells
Format: cell-based, Human
test-parameters: human, U-2 OS cells
measured-metric: CC50 at 24 h

Q) Quick one: CC50 at 24 h for O=C(CN1C(=O)CNC1=O)NCc1n[nH]c2c1CCCCC2 ?
A) > 500 µM
